target: SARS-CoV-2 spike protein on pseudotyped lentivirus (Wuhan Reference Pseudovirus) (SARS-CoV-2, UniProt P0DTC2 14-1273); experiment: cell-based or functional assay
Overview of reported Pseudovirus neutralization IC50 across a group of binders:
Experimental readout: Pseudovirus neutralization IC50

PP1100 MBP-5HVZ-PAPA-RN-14-H6 (VHH, Form: Dimer) VHH: QVQLVESGGGLVQPGGSLRLSCAASGENFSGNLVHWFRQAPGKAREGVATVTSTGSGYYADSVKGRFTISRDNAKNTVYLQMNSLKPEDTAVYYCAAKHQKGEIPYYDWGQGTQVTVSS :: 6.95 nM
PP1144 MBP-5HVZ-PAPA-R2c-F6-H6 (VHH, Form: Dimer) VHH: QVQLVESGGGLVQPGGSLRLSCAASGRILAANIVHWYRQAPGKEREGVAGITTGGSNYYSDSVKGRFTISRDNAKNTVYLQMNSLKPEDTAVYYCNALGLGSASGSYESWGQGTQVTVSS :: 11.9 nM
PP1155 MPB-scTRP-PAPA-R2b-D5-H6 (VHH, Form: Trimer) VHH: QVQLVESGGGLVQPGGSLRLSCAASGYADEINMVHWYRQAPGKGREFVAAIASGGSTFYADSVKGRFTISRDNAKNTVYLQMNSLKPEDTAVYYCAAIPRPSLSYAHDYAYWGQGTQVTVSS :: 0.634 nM
PP1160 MPB-scTRP-PAPA-R5a-C5-H6 (VHH, Form: Trimer) VHH: QVQLVESGGGLVQPGGSLRLSCAASGDIFSINALHWFRQAPGKQREEVAAITSGGSTGYADSVKGRFTISRDNAKNTVYLQMNSLKPEDTAVYYCAAQQARGGLDSDYWGQGTQVTVSS :: 2.41 nM
